test: qHTS assay to identify small molecule agonists of H2AX - cell viability counter screen (AID 1224847);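 further: wild-type CHO-K1 cells; top concentration of the series differs between compounds; nearly all actives have a fitted effect of over 30% in size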
stated-conditions: CHO-K1 viability, CellTiter-Glo luminescence, 3 h; series mostly up to 154 µM
Inconclusive results are not listed. Activity calls are given as the source filed them. The call rests on the fitted dose curve.
Choose the fitting class; nothing outside 1 (yes) for active, 0 (no) for inactive is accepted.

compound: CC(C)(CCl)c1ccccc1
class: 0 (no)
//
compound: CCCCC(CC)COC(=O)COc1ccc(Cl)cc1C (stereo unspecified)
class: 0 (no)
//
compound: CCCOc1ccc(S(=O)(=O)N2CCN(CC)CC2)cc1-c1nc2c(CC)n(Cc3ccccn3)nc2c(=O)[nH]1
class: 0 (no)
//
compound: COC(=O)c1cc(Cl)ccc1NS(=O)(=O)C(F)(F)F
class: 0 (no)
//
compound: CC(C)=CC=O
class: 0 (no)

Could you kindly confirm the outcome this assay logged for NC(=O)N(O)[C@@H]1COc2cc(OCc3ccccc3)ccc21 ? 0 (no)

Could you kindly confirm the outcome this assay logged for CC(CCc1ccc2c(c1)OCO2)NN (stereo unspecified) ? 0 (no)

Could you kindly confirm the outcome this assay logged for CC1CC(O)CC(C)(C)C1 (stereo unspecified) ? 0 (no)

Could you kindly confirm the outcome this assay logged for O=C(CCCCCCCCC#CI)Oc1ccccc1 ? 0 (no)

Could you kindly confirm the outcome this assay logged for CC(=O)OCC(=O)[C@H]1CC[C@H]2[C@@H]3CCC4=CC(=O)CC[C@]4(C)[C@H]3CC[C@]12C ? 0 (no)

Could you kindly confirm the outcome this assay logged for CCC(=O)OC/C=C/c1ccccc1 ? 0 (no)

----------
target-under-test: Androgen receptor (Homo sapiens) (UniProt P10275)
Sequence (P10275 whole entry, looked up): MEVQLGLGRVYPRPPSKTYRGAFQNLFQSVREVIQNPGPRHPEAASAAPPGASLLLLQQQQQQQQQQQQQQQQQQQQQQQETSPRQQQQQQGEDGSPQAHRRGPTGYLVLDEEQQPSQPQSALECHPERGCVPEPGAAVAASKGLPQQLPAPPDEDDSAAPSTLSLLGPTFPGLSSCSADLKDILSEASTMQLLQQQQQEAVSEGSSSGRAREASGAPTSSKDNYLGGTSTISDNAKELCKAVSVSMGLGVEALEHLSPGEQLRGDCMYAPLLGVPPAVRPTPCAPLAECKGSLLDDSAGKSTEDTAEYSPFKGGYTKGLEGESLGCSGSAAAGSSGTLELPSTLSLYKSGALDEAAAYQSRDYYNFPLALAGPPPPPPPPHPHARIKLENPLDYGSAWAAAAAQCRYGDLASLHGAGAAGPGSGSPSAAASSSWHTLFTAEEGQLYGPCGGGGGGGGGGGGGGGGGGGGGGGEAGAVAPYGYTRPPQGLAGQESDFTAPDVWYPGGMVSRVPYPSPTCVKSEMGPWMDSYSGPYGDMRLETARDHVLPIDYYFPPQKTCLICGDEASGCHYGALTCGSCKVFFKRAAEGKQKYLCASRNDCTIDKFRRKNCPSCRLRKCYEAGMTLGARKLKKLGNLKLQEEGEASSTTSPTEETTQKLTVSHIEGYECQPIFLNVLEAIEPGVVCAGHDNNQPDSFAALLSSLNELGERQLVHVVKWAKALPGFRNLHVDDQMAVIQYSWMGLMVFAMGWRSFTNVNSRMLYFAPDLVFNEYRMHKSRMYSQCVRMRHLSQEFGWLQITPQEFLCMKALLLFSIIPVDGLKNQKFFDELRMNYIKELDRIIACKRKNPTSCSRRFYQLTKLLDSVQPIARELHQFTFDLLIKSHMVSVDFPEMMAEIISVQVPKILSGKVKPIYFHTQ
test: qHTS assay to identify small molecule antagonists of the androgen receptor (AR) signaling pathway using the MDA cell line (AID 743042; further: nearly all actives have a fitted effect of over 55% in size)
stated-conditions: MDA-kb2 AR-luc, MMTV luciferase, R1881 antagonist, 16 h; series mostly up to 70.3 µM
Records with an inconclusive call do not appear. The source made the active and inactive calls. Calls come from the whole dose curve; as a rule, active = well fitted inhibition curve with a large enough effect in the repeat runs; inconclusive = weak or mixed curves, or effect the other way; inactive = no such curve, though single readings can be large or run the other way.
Choose the fitting class; nothing outside active, inactive is accepted.

Please review the following examples before continuing.
cpd-smiles: CCCCCCCCSCCO
class: inactive
--
cpd-smiles: CCOC(=O)[C@@H](C)Oc1ccc(Oc2nc3ccc(Cl)cc3o2)cc1
class: inactive
--
cpd-smiles: Cc1ccc(Nc2nccc(N(C)c3ccc4c(C)n(C)nc4c3)n2)cc1S(N)(=O)=O
class: active
--
cpd-smiles: CC(=O)OCC(=O)[C@H]1CC[C@H]2[C@@H]3CCC4=CC(=O)CC[C@]4(C)[C@H]3CC[C@]12C
class: inactive
--
cpd-smiles: c1cnc2c(n1)CCCC2
class: inactive
--
cpd-smiles: CCCc1c(OCCCOc2ccc(OCC(=O)O)cc2)ccc(C(C)=O)c1O
class: inactive

Could you kindly confirm the outcome this assay logged for CC(=O)Nc1ccc(N)cc1 ? inactive

----------
target-under-test: Nuclear receptor subfamily 1 group I member 3 (Homo sapiens)
test: qHTS assay to identify small molecule antagonists of the constitutive androstane receptor (CAR) signaling pathway (AID 1224838);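 further: HepG2 cells stably expressing hCAR with CYP2B6 luciferase reporter stimulated by CITCO; nearly all actives have a fitted effect of over 40% in size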
stated-conditions: HepG2-CYP2B6-hCAR luciferase, CITCO-stimulated, 24 h; series mostly up to 92.4 µM
Source text: U.S. Tox21 Program National Center for Advancing Translational Sciences [NCATS] NIH Chemical Genomics Center [NCGC] U.S. Environmental Protection Agency [EPA] National Institutes of Environmental Health Sciences [NIEHS] National Toxicology Program [NTP] U.S. Food and Drug Administration [FDA] […] Tox21 Assay Protocol Summary: A double-stable (hCAR and CYP2B6-2.2kb) transfected cell line, derived from human hepatoma (HepG2) cells, was utilized for the duration of the quantitative high-throughput screens. […]
Results filed as inconclusive are left out. The source made the active and inactive calls. The call rests on the fitted dose curve; in most records, active means well fitted inhibition curve with a large enough effect in the repeat runs; inconclusive means weak or mixed curves, or effect the other way; inactive means no such curve, though single readings can be large or run the other way.
quantity-measured: outcome

Observe how each entry below is paired with its result.
compound: Fc1c(F)c(F)c(Br)c(F)c1F
value: inactive
//
compound: CCCCN(CCCC)CCCOC(=O)c1ccc(N)cc1
value: inactive
//
compound: CC(CCc1ccc2c(c1)OCO2)NN (configuration not stated)
value: inactive
//
compound: CC(C)CCCCCOC(=O)CCCCC(=O)OCCCCCC(C)C
value: inactive

List the reported outcome of each compound below.
1. COC(=O)c1cc(S(N)(=O)=O)ccc1OC
2. COC(=O)[C@@H]1CC2=CC(=O)CC[C@]2(C)[C@@]23O[C@@H]2C[C@@]2(C)[C@@H](CC[C@@]24CCC(=O)O4)[C@H]13
3. Cc1cc(OI)c(C(C)C)cc1-c1cc(C(C)C)c(OI)cc1C

["inactive", "inactive", "inactive"]

----------
target-under-test: Cytochrome P450 2D6 (Homo sapiens) (UniProt P10635)
Sequence (P10635 whole entry, looked up): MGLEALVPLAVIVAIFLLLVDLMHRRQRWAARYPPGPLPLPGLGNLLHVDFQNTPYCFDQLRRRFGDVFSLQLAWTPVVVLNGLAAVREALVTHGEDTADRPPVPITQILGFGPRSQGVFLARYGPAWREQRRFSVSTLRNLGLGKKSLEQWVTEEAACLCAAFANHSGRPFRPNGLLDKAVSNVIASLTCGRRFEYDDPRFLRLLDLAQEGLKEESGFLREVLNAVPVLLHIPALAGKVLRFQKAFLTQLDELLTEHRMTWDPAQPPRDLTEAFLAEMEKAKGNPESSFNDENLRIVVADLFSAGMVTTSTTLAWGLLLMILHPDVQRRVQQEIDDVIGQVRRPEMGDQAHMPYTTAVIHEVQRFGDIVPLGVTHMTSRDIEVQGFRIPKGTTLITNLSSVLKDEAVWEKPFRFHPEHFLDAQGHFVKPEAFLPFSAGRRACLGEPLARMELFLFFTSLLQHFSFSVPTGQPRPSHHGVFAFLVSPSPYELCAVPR
test: Cytochrome P450 Family 2 Subfamily D Member 6 (CYP2D6) small molecule antagonists: luciferase reporter qHTS assay (AID 1671196); further: nearly all actives have a fitted effect of over 50% in size
stated-conditions: P450-Glo CYP2D6 enzyme assay, luciferin luminescence, 1 h; series mostly up to 115 µM
Results filed as inconclusive are left out. Active and inactive are the calls of the source. Calls follow the shape of the dose curve; as a rule, active = well fitted inhibition curve with a large enough effect in the repeat runs; inconclusive = weak or mixed curves; inactive = no such curve, though single readings can be large or run the other way.
Choose the fitting class; nothing outside active, inactive is accepted.

Could you kindly confirm the outcome this assay logged for C=CC(=O)NCOCC(C)C ? inactive

Could you kindly confirm the outcome this assay logged for CC(CCc1ccc2c(c1)OCO2)NN (configuration not stated) ? active

Could you kindly confirm the outcome this assay logged for O=C(CS)OCCOC(=O)CS ? inactive

Could you kindly confirm the outcome this assay logged for Cc1ccccc1N1C(=O)c2cc(S(N)(=O)=O)c(Cl)cc2NC1C (configuration not stated) ? inactive

Could you kindly confirm the outcome this assay logged for CC(=O)N(c1onc(C)c1C)S(=O)(=O)c1ccc(N)cc1 ? inactive

Could you kindly confirm the outcome this assay logged for CCCc1c(OCCCOc2ccc(OCC(=O)O)cc2)ccc(C(C)=O)c1O ? inactive

Could you kindly confirm the outcome this assay logged for Cc1cnc(C)c(C)n1 ? inactive

----------
target-under-test: Nuclear receptor subfamily 1 group I member 2 (Homo sapiens) (UniProt O75469)
Sequence (O75469 whole entry, looked up): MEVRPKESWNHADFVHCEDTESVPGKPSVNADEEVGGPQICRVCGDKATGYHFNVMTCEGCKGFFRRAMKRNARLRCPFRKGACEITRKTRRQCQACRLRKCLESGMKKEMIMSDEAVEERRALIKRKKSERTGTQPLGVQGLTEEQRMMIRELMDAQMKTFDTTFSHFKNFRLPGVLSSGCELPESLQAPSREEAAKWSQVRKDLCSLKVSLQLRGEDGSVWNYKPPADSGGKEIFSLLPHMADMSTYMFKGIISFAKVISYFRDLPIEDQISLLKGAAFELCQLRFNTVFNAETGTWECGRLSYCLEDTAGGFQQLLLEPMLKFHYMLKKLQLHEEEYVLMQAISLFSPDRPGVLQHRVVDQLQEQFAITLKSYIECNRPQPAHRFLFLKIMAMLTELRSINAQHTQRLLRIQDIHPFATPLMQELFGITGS
test: Human pregnane X receptor (PXR) small molecule agonists, qHTS assay (AID 1346982); further: nearly all actives have a fitted effect of over 35% in size
stated-conditions: PXR-Luc HepG2, CYP3A4 luciferase reporter, 24 h; series mostly up to 92.4 µM
Inconclusive results are not listed. Calls of active or inactive are those of the source. Calls come from the whole dose curve; as a rule, active = well fitted activation curve with a large enough effect in the repeat runs; inconclusive = weak or mixed curves; inactive = no such curve, though single readings can be large or run the other way.
Choose the fitting class; nothing outside T for active, F for inactive is accepted.

compound: Cc1ccc(/C=N/n2c(-c3ccccc3)csc2=S)cc1
class: T

compound: CCCCCCCC/C=C\CCCCCCCC(=O)OC
class: F

compound: O=C(O)c1ccc(CO)o1
class: F

compound: Nc1c(I)cc(I)c(C(=O)N(CCC(=O)O)c2ccccc2)c1I
class: T

compound: CCC(Cc1ccccc1)(C(=O)c1ccc(N2CCOCC2)cc1)N(C)C (configuration not stated)
class: T

compound: C[N+]1(C)CCC(=C(c2ccccc2)c2ccccc2)CC1
class: F

Could you kindly confirm the outcome this assay logged for CCCCC(=O)O[C@]1(C(=O)CO)CC[C@H]2[C@@H]3CCC4=CC(=O)CC[C@]4(C)[C@H]3[C@@H](O)C[C@@]21C ? T

Could you kindly confirm the outcome this assay logged for N#C/C(=C1/SC[C@@H](c2ccc(Cl)cc2Cl)S1)n1ccnc1 ? F

Could you kindly confirm the outcome this assay logged for CCCOC(=O)c1ccc(C(=O)OCCC)nc1 ? F

Could you kindly confirm the outcome this assay logged for O=C(CCCN1CCN(c2ccc(F)cc2)CC1)NC1c2ccccc2CSc2ccccc21 (configuration not stated) ? F

Could you kindly confirm the outcome this assay logged for Cc1cc(O)c2c(O)c3c(O)cccc3cc2c1 ? T

Could you kindly confirm the outcome this assay logged for O=C(O)c1cccnc1C(=O)O ? F

----------
test: Caspase-3/7 induction in CHO-K1 cells by small molecules, qHTS cell viability counter screen (AID 1346979); further: nearly all actives have a fitted effect of over 35% in size
stated-conditions: CellTiter-Fluor fluorescence, 17 h; series mostly up to 92.4 µM
Results filed as inconclusive are left out. Calls of active or inactive are those of the source. Calls come from the whole dose curve; as a rule, active = well fitted cell-killing curve with a large enough effect in the repeat runs; inconclusive = weak or mixed curves, or effect the other way; inactive = no such curve, though single readings can be large or run the other way.
Choose the fitting class; nothing outside active, inactive is accepted.

Please review the following examples before continuing.
molecule: O=S1OCCO1
class: inactive

molecule: Cc1cc(C(=C2C=CC(=Nc3ccc(S(=O)(=O)O)cc3S(=O)(=O)O)C=C2)c2ccc(Nc3ccc(S(=O)(=O)O)cc3)cc2)ccc1N
class: inactive

molecule: O=C(CCCN1CCN(c2ccc(F)cc2)CC1)NC1c2ccccc2CSc2ccccc21 (stereo unspecified)
class: inactive

molecule: Cn1c(=O)c2c(ncn2CC(=O)O)n(C)c1=O
class: inactive

molecule: N#C[C@@H]1C[C@@H]2C[C@@H]2N1C(=O)[C@@H](N)C12CC3CC(CC(O)(C3)C1)C2
class: inactive

molecule: COCCOC(=O)C1=C(C)NC(C)=C(C(=O)OC/C=C/c2ccccc2)C1c1cccc([N+](=O)[O-])c1 (stereo unspecified)
class: active

molecule: C=CC(=C)CCCC(C)(C)OC(C)=O
class: inactive

molecule: CC1=CC(O)CC(C)(C)C1 (stereo unspecified)
class: inactive

molecule: O=Cc1c(Cl)cccc1Cl
class: inactive

molecule: Cc1cc(S(=O)(=O)O)ccc1N=Nc1c(O)ccc2ccccc12
class: active

Now, please, on to the next molecule.
Could you kindly confirm the outcome this assay logged for CC(CCO)CCc1ccccc1 (stereo unspecified) ? inactive
